# System: Fluoroquinolone-Resistant Strains
# Assay method text: In-vitro antimicrobial test (MIC, two-fold serial agar dilution, NCCLS), Table 18
# Assay type: cell-based
# Experimental parameters: Staphylococcus aureus, MRSA, MRSA 032
Reported endpoint: MIC (µg/mL)
Numeric answer only, unit µg/mL assumed.

> print(dat)
                                   molecule  unit.annotation  result.value
1  Cc1c(N2CC[C@@H](N)[C@H](C)C2)c(F)cc2c(=O)c(C(=O)O)cn(C3CC3)c12.Cl (single isomer, unassigned)            µg/mL          1.56
2  Cc1c(N2CC[C@@H](N)[C@H](C)C2)c(F)cc2c(=O)c(C(=O)O)cn(C3CC3)c12 (single isomer, unassigned)            µg/mL           0.8
3  Cc1c(N2CC[C@@H](O)[C@H](C)C2)c(F)cc2c(=O)c(C(=O)O)cn(C3CC3)c12 (relative stereo)            µg/mL           0.2
4  COc1c(N2CCC(N)C(C)(C)C2)c(F)cc2c(=O)c(C(=O)O)cn(C3CC3)c12.Cl (racemic) [Compound 18]            µg/mL           0.8
5  Cc1c(N2CC[C@H](N)[C@H](C)C2)c(F)cc2c(=O)c(C(=O)O)cn(C3CC3)c12.Cl (relative stereo)            µg/mL          1.56

Then this molecule:
INPUT: Under Fluoroquinolone-Resistant Strains: report MIC of Cc1c(N2CCC(N)C(C)(C)C2)c(F)cc2c(=O)c(C(=O)O)cn(C3CC3)c12.Cl (racemic) .
OUTPUT: 0.8

Where do the numbers come from? From patent US6878713B2.
